biological target: von Willebrand factor full length (Homo sapiens, UniProt P04275 SEQ:764-2813); experiment: filter; 51% bound at 100 nM vWF; conditions: tags: Calbiochem 681300; label: 5'-32P
value.type: Kd (nM)
// units = nM; emit number, no label

QUERY: Please give measured Kd of the following entry: GCGUGCAGUGCCUUCGGCCGTGCGGTGCCUCCGUCACGC (mixed, 2'-OMe/deoxy composite, 3'-idT) [ARC1346]
RESULT: 11
